target: TARLL4a (Petromyzon marinus, UniProt A0AAJ7T9R0); assay: Cell-based receptor activation reporter assay (SEAP / Dual-Glo luciferase); conditions: TARLL4a
Sequence (A0AAJ7T9R0 entry or part of it): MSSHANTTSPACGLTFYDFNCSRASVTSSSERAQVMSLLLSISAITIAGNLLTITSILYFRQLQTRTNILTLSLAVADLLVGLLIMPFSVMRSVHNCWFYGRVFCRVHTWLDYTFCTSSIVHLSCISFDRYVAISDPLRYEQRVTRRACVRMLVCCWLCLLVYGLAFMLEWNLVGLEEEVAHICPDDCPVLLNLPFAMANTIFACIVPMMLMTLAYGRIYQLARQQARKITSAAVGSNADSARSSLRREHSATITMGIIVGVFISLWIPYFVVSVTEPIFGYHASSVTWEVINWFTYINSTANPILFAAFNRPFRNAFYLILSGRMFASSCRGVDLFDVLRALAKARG
pEC50: −log10 of the molar value.
Decide by pEC50: equal to or exceeding 4 means met, less means not met.

test.smiles: CCCCN
assayed.target: TARLL4a (Petromyzon marinus, UniProt A0AAJ7T9R0)
qualitative.label: met

test.smiles: CC(C)N
assayed.target: TARLL4a (Petromyzon marinus, UniProt A0AAJ7T9R0)
qualitative.label: not met

test.smiles: NCCCCCO
assayed.target: TARLL4a (Petromyzon marinus, UniProt A0AAJ7T9R0)
qualitative.label: met

test.smiles: CCCCCCN
assayed.target: TARLL4a (Petromyzon marinus, UniProt A0AAJ7T9R0)
qualitative.label: met

test.smiles: CC(C)CN
assayed.target: TARLL4a (Petromyzon marinus, UniProt A0AAJ7T9R0)
qualitative.label: not met
